System: CCRIS mutagenicity, Ames/micronucleus/aberration tests
PROTOCOL_NOTES: CCRIS mutagenicity studies
STUDY_CONDITIONS: Test System: AMES SALMONELLA TYPHIMURIUM; Strain/Indicator: TA100; Metabolic Activation: NONE; Method: FLUCTUATION TEST
Active and inactive are the calls of the source. How the calls were made is not given here.
Your reply should match one of these outcome classes. yes = active, no = inactive

Use the examples below as a reference point.
Prompt line: Dear colleague, could you share the recorded outcome for "C[C@H](CCC(=O)O)[C@H]1CC[C@H]2[C@@H]3CC[C@@H]4C[C@@H](O)CC[C@]4(C)[C@H]3CC(=O)[C@]12C" when you have a moment?
Response line: no

Prompt line: Repeat with "O=C(O)C(Cl)Cl"
Response line: yes

Prompt line: Repeat with "C[C@H](CCC(=O)O)[C@H]1CC[C@H]2[C@@H]3CC[C@@H]4CC(=O)CC[C@]4(C)[C@H]3CC(=O)[C@]12C"
Response line: no

Prompt line: Repeat with "OCl"
Response line: no

--- query ---
Prompt line: Dear colleague, could you share the recorded outcome for "CN(C)c1ccc(N=O)cc1" when you have a moment?
Response line: yes
